From: patent US20230372526A1

Readings of 1 h hydrolysis percentage for the listed molecules
test: Hydrolysis of Pertuzumab conjugated samples obtained using different small molecule compounds, hydrolysis percentage by Native MS; assay type: physicochemical; conditions: hydrolysis system B: 50 mM sodium phosphate buffer+3% arginine, pH 7.8; 1 h

Any idea what 1 h hydrolysis percentage was measured for CCC(C)[C@@H]([C@@H](CC(=O)N1CCC[C@H]1[C@H](OC)[C@@H](C)C(=O)N[C@H](C)[C@@H](O)c1ccccc1)OC)N(C)C(=O)[C@@H](NC(=O)[C@H](C(C)C)N(C)C(=O)OCc1ccc(NC(=O)[C@H](CCCNC(N)=O)NC(=O)[C@@H](NC(=O)COCCOCCOCCOc2ccc(N3C(=O)C(Sc4ccc(C(=O)N5CCOCC5)cc4)=C(Sc4ccc(C(=O)N5CCOCC5)cc4)C3=O)cc2)C(C)C)cc1)C(C)C (some centres unmarked) ? 94.52%

Any idea what 1 h hydrolysis percentage was measured for CCC(C)[C@@H]([C@@H](CC(=O)N1CCC[C@H]1[C@H](OC)[C@@H](C)C(=O)N[C@H](C)[C@@H](O)c1ccccc1)OC)N(C)C(=O)[C@@H](NC(=O)[C@H](C(C)C)N(C)C(=O)OCc1ccc(NC(=O)[C@H](CCCNC(N)=O)NC(=O)[C@@H](NC(=O)COCCOCCOCCOc2c(F)cc(N3C(=O)C(Sc4ccc(C(=O)N5CCOCC5)cc4)=C(Sc4ccc(C(=O)N5CCOCC5)cc4)C3=O)cc2F)C(C)C)cc1)C(C)C (some centres unmarked) ? 97.52%

Any idea what 1 h hydrolysis percentage was measured for CCC(C)[C@@H]([C@@H](CC(=O)N1CCC[C@H]1[C@H](OC)[C@@H](C)C(=O)N[C@H](C)[C@@H](O)c1ccccc1)OC)N(C)C(=O)[C@@H](NC(=O)[C@H](C(C)C)N(C)C(=O)OCc1ccc(NC(=O)[C@H](CCCNC(N)=O)NC(=O)[C@@H](NC(=O)COCCOCCOCCOc2ccc(N3C(=O)C(Sc4ccc(C(=O)NC)cc4)=C(Sc4ccc(C(=O)NC)cc4)C3=O)cc2OC)C(C)C)cc1)C(C)C (some centres unmarked) ? 26.12%

Any idea what 1 h hydrolysis percentage was measured for CCC(C)[C@@H]([C@@H](CC(=O)N1CCC[C@H]1[C@H](OC)[C@@H](C)C(=O)N[C@H](C)[C@@H](O)c1ccccc1)OC)N(C)C(=O)[C@@H](NC(=O)[C@H](C(C)C)N(C)C(=O)OCc1ccc(NC(=O)[C@H](CCCNC(N)=O)NC(=O)[C@@H](NC(=O)COCCOCCOCCOc2c(F)cc(N3C(=O)C(Sc4ccccc4)=C(Sc4ccccc4)C3=O)cc2F)C(C)C)cc1)C(C)C (some centres unmarked) ? 93.48%

Continuing:
Any idea what 1 h hydrolysis percentage was measured for CCC(C)[C@@H]([C@@H](CC(=O)N1CCC[C@H]1[C@H](OC)[C@@H](C)C(=O)N[C@H](C)[C@@H](O)c1ccccc1)OC)N(C)C(=O)[C@@H](NC(=O)[C@H](C(C)C)N(C)C(=O)OCc1ccc(NC(=O)[C@H](CCCNC(N)=O)NC(=O)[C@@H](NC(=O)COCCOCCOCCOc2ccc(N3C(=O)C(Sc4ccccc4)=C(Sc4ccccc4)C3=O)c(C(F)(F)F)c2)C(C)C)cc1)C(C)C (some centres unmarked) ? 18.17%
